PROTOCOL_DESCRIPTION: NCI Yeast Anticancer Drug Screen. Data for the mlh1 rad18 strain (AID 175)
EXPERIMENTAL_CONDITIONS: S. cerevisiae mlh1 rad18 strain growth inhibition; at 50.0 µM; stronger effect = higher value
About 79,000 compounds went through this panel and 15% of them were active in at least one assay; those are over-represented in the sample as a whole.
ENDPOINT_NAME: growth inhibition (%)
Write the number in % without appending the unit.

Below, 5 molecules whose answers are already recorded.
INSERT INTO measurements (molecule, value_unit, numeric_value) VALUES
  ('N#CNc1nc(N)cc(N)n1', '%', -4.6),
  ('O=[N+]([O-])c1ccc(-c2cc[cH-]c2)cc1.[Fe+2].c1cc[cH-]c1', '%', -0.75),
  ('CN(CC(=O)c1ccc(Cl)cc1)Cc1ccccc1', '%', -3.5),
  ('CCOC(=O)C(C)c1nc2ccc(C(F)(F)F)cc2[nH]c1=O (configuration not stated)', '%', 39.5),
  ('CCC(c1ccc(Cl)cc1)N(CC)c1ccccn1 (configuration not stated)', '%', -30.2);

Request: Please look up its growth inhibition: O=C1CCCC2=C1CC1=C(CCCC1=O)N2c1ccccc1C(=O)O
Response: -36.3

Request: Consider the molecule shown here: C(=N\N1CCN(/N=C/c2c[nH]c3ccccc23)CC1)/c1c[nH]c2ccccc12 What is its recorded growth inhibition?
Response: -3.05

Request: Which growth inhibition is reported for this molecule? N#CCC(=O)N/N=C(\C#N)c1ccccc1
Response: 0.75

====

PROTOCOL_DESCRIPTION: NCI Yeast Anticancer Drug Screen. Data for the rad50 strain (AID 155);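 further: 0% = growth of vehicle-only cultures of the same strain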
EXPERIMENTAL_CONDITIONS: S. cerevisiae rad50 strain growth inhibition; at 50.0 µM; stronger effect = higher value
The panel holds about 79,000 compounds, 15% with a hit somewhere; the sample as a whole holds those more often.
Item-by-item account of growth inhibition
Enter your answer as a number in %; do not include the unit.

INSERT INTO measurements (compound, numeric_value) VALUES
  ('Nc1cccc(-c2nc3ncnc(N)c3[nH]2)c1', 8.6),
  ('N#CCCNC=O', -7.15),
  ('Cc1[nH]c(N)nc(=S)c1CCC(C)C', -16.6),
  ('CCOC(=O)C(Nc1cccc2ccccc12)C(=O)OCC', 0.5),
  ('NC(=O)N1N=C2c3ccccc3SC[C@H]2[C@@H]1c1ccccc1', 29.5),
  ('O=c1[nH]cccc1O', 5.2);

Request: Could you tell me which growth inhibition is on file for C=C1CC[N+]2(CCCCCC)CCCC12 (configuration not stated) ?
Response: 2.5

====

PROTOCOL_DESCRIPTION: NCI Yeast Anticancer Drug Screen. Data for the rad50 strain (AID 155);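 further: 0% = growth of vehicle-only cultures of the same strain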
EXPERIMENTAL_CONDITIONS: S. cerevisiae rad50 strain growth inhibition; at 50.0 µM; stronger effect = higher value
About 79,000 compounds went through this panel and 15% of them were active in at least one assay; those are over-represented in the sample as a whole. Where a SMILES comes first, the peptide text is derived from it. The star is where a group is joined. Trt = c1ccc(C(c2ccccc2)(c2ccccc2)*)cc1; Benzhydryl = c1ccc(C(c2ccccc2)*)cc1; Cbz = O=C(OCc1ccccc1)*
ENDPOINT_NAME: growth inhibition (%)
Give your result in % as a bare value.

INSERT INTO measurements (compound, numeric_value) VALUES
  ('CSC(N)=NC1CCCCC1', -7.35),
  ('CC(O)COC(C)c1ccccc1 (centres undefined)', 9.05),
  ('CCC(CC)(C1CCC(=O)CC1)C1CCC(=O)CC1', 45.9);

Now take the following compound into account.
Request: Item under review: COC(=O)C(Cc1ccccc1)NC(=O)C(Cc1ccccc1)NC(=O)CNC(=O)C(CSC(c1ccccc1)c1ccccc1)NC(=O)C(CSC(c1ccccc1)(c1ccccc1)c1ccccc1)NC(=O)OCc1ccccc1 (centres undefined) (Cbz-C(Trt)C(Benzhydryl)GFF-OMe; configuration not given here) . Reported growth inhibition?
Response: -5.55

====

PROTOCOL_DESCRIPTION: NCI Yeast Anticancer Drug Screen. Data for the mlh1 rad18 strain (AID 175)
EXPERIMENTAL_CONDITIONS: S. cerevisiae mlh1 rad18 strain growth inhibition; at 50.0 µM; stronger effect = higher value
This is part of a sample that, as a whole, favours compounds with a hit. Of some 79,000 tested, about 15% had one in any assay.
ENDPOINT_NAME: growth inhibition (%)
Numeric only. Scale: %

For orientation, consider the following solved cases.
INSERT INTO results (compound, value_unit, numeric_value) VALUES
  ('CCOC(=O)C(C(=O)OCC)C(=O)c1cc(OC)c(OC)c(OC)c1', '%', 6.5),
  ('COc1ccccc1/C=C1/C(=O)ON=C1C', '%', -18.5),
  ('COc1cccc(C2c3cc4c(cc3OC(N3CCCCC3)C2C)OCO4)c1O (stereo unspecified)', '%', 0.1),
  ('C=CS(=O)(=O)CCCCCCCCCCCCCC', '%', 29.5),
  ('O=C(Nc1c(Cl)c(Cl)c2c(c1Cl)Cc1cc(Cl)ccc1-2)C(Cl)Cl', '%', 25.4);

Request: Given the compound Cn1c(=O)cc(NC2OC(CO)C(O)C(O)C2O)[nH]c1=O (stereo unspecified) , what is its reported growth inhibition?
Response: 11.5

Request: Would you mind telling me what growth inhibition value was observed for Cc1ccc(NC(=O)CCCC(=O)CC(=O)c2ccc(Br)cc2)cc1 ?
Response: -24.6

Request: If you can, please state the reported growth inhibition value of O=C(Nc1ccc(N=Nc2ccccc2)cc1)c1ccc(Cl)cc1 .
Response: -7.95

Request: Dear colleague, I am looking for the recorded growth inhibition of the following compound: O=C(/C(=N/O)c1ccc(Cl)cc1)c1ccccc1
Response: 99.6

Request: growth inhibition lookup needed for O=Cc1ccccc1S(=O)(=O)O , thanks.
Response: -13.2

====

PROTOCOL_DESCRIPTION: NCI Yeast Anticancer Drug Screen. Data for the mlh1 rad18 strain (AID 175)
EXPERIMENTAL_CONDITIONS: S. cerevisiae mlh1 rad18 strain growth inhibition; at 50.0 µM
The panel holds about 79,000 compounds, 15% with a hit somewhere; the sample as a whole holds those more often. Active and inactive are the calls of the source. Cut-off read from the data, not from the text of the source: active = growth inhibition above about 70%; inactive = the rest.
Respond only with the outcome that fits, drawn from active, inactive

// known answers, use as guide
INSERT INTO measurements (compound, label) VALUES
  ('CCN(CC)CC(C)(C)C(=O)/C=C/c1ccc(OC)cc1', 'inactive'),
  ('CC(C)=CC(=O)OC1C2C(C)=CC(O)C(O)C2(C)C2C3(O)OCC24C(CC(=O)OC14)C(C)C3O (stereo not given)', 'active'),
  ('Cc1ccc(S(=O)(=O)OCC2C(COS(=O)(=O)c3ccc(C)cc3)C3C=CC2C32CC2)cc1 (stereo not given)', 'inactive'),
  ('CS(=O)c1ccc(/C=C2/C=Cc3ccccc32)cc1 (stereo not given)', 'inactive'),
  ('CC(=O)Nc1ccc(S(=O)(=O)SC(F)(F)F)cc1', 'inactive');

Request: Could you check what this test reported for CCN(CC)c1ccc(NC(=S)Nc2cccc(C(F)(F)F)c2)c(C)c1 ?
Response: inactive

Request: # lookup: test call for Cc1cccc(Cl)c1NC(=O)c1ccc(C(=O)Nc2c(C)cccc2Cl)cc1
Response: inactive

====

PROTOCOL_DESCRIPTION: NCI Yeast Anticancer Drug Screen. Data for the cln2 rad14 strain (AID 165);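 further: 0% = growth equal to vehicle treated cultures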
EXPERIMENTAL_CONDITIONS: S. cerevisiae cln2 rad14 strain, at 50.0 µM, stronger effect = higher value
About 79,000 compounds went through this panel and 15% of them were active in at least one assay; those are over-represented in the sample as a whole.
ENDPOINT_NAME: growth inhibition (%)
State the answer as a number, implicitly in %.

Here's what some known entries look like.
INSERT INTO measurements (compound, endpoint_name, value_unit, numeric_value) VALUES
  ('CC(C)CCNC(=O)CS(=O)(=O)c1ccc(N)cc1', 'growth inhibition', '%', -34.2),
  ('CN(C(=O)c1ccc(C(=N)N)cc1)c1ccccc1', 'growth inhibition', '%', -12.8),
  ('CCNC(CC(N)=O)C(=O)O (configuration not stated)', 'growth inhibition', '%', -4.05),
  ('c1cnn([B-]2(n3cccn3)n3ccc[n+]3[B-](n3cccn3)(n3cccn3)n3ccc[n+]32)c1', 'growth inhibition', '%', -8.85),
  ('O=S(Cc1ccccc1)c1ccccc1Cn1cccc1 (configuration not stated)', 'growth inhibition', '%', -18.6),
  ('COc1cc(CC2c3cc(OC)c(OC)cc3CCN2C)ccc1O (configuration not stated)', 'growth inhibition', '%', -9.2);

We next turn to a different compound, shown below.
Request: Record request: growth inhibition value, item O=C1OCCC2(CCN(Cc3ccccc3)CC2)O1
Response: -0.3

Data provenance is PubChem BioAssay (NCI).
